Each recorded value in this set is attributed to ChEMBL document CHEMBL1131484.

biological target: Growth hormone-releasing hormone receptor (Rattus norvegicus); assay: Potency for growth hormone releasing hormone receptor (GHRFR) relative to human GHRH(1-40)OH- in the rat pituitary cell culture assay; format: functional, cell-based; settings: Pituitary gland cell
measured.property: Relative potency

Solved entries (count: 5):
{"substance": "H-YADAIFTNSYRKVLGQLSARKLLQAIMSR-NH2", "Relative potency": 1.3}
{"substance": "H-AADAIFTNSYRKVLGQLSARKLLQDIMSR-NH2", "Relative potency": 0.01}
{"substance": "H-YADAIATNSYRKVLGQLSARKLLQDIMSR-NH2", "Relative potency": 0}
{"substance": "H-YADAIFTNSYAKVLGQLSARKLLQDIMSR-NH2", "Relative potency": 0.01}
{"substance": "H-YADAIFTNSYRKVLGALSARKLLQDIMSR-NH2", "Relative potency": 1.5}

[I] H-YADAIFTNSYRKVLGQLSARKLAQDIMSR-NH2
[II] H-YADAIFTNSYRKVLGQLSARKLLQDIASR-NH2
[III] H-YADAAFTNSYRKVLGQLSARKLLQDIMSR-NH2
[IV] H-YADAIFTNSYRKVLGQLSARKALQDIMSR-NH2
[V] H-YADAIFTNSARKVLGQLSARKLLQDIMSR-NH2
Please order the records by their reported Relative potency, lowest number first. Write the labels out in the order the request specifies. V, I, III, II, IV
(V: 0.01, I: 0.07, III: 0.1, II: 0.32, IV: 4.7)

[P] H-YAAAIFTNSYRKVLGQLSARKLLQDIMSR-NH2
[Q] H-YADAIFANSYRKVLGQLSARKLLQDIMSR-NH2
# argmax over Relative potency for candidates P and Q Answer with the label corresponding to your selection. Q
(Q: 0.29, P: 0.05)
